I'd appreciate it if you could supply growth values for the items below.
# Test system: HOP-62 NSCLC
# experimental_protocol: NCI-60 one-dose screen, 48 h (100 = growth as untreated, 0 = no growth, -100 = all killed)
# settings: 10 µM unless noted
About 83,000 compounds went through this panel and 20% of them were active in at least one assay; those are over-represented in the sample as a whole. Active and inactive are the calls of the source. How the source made its calls: active means growth percent below 10; inactive means the rest.

Query :: Query the reported growth for HOP-62 NSCLC; item: CC12CCC3C4(C)COC(c5ccccc5Cl)OC4CCC3(C)C1CC(C1=CCOC1=O)O2 (stereo not given)
Result :: 78.3% (inactive)

Query :: // repeat for COc1cc(/C=C/C(=O)c2c(C)nc3ccccc3c2C)ccc1OCCCCOc1cc2c(cc1OC)C(=O)N1CCC[C@H]1C=N2 and report
Result :: -49% (active)

Query :: // repeat for COc1ccc(Nc2ncccc2C(=O)NCc2cn(Cc3cccc(Oc4ccccc4)c3)nn2)cc1 and report
Result :: 51.2% (inactive)

Query :: // repeat for Cn1c2ccc(Br)cc2c2c3c(c4c5ccccc5[nH]c4c21)C(=O)N(O)C3=O and report
Result :: -67.8% (active)

Query :: // repeat for CC(C)OC(=O)N1CCOCC1 and report
Result :: 98.9% (inactive)

Source listed as PubChem BioAssay (NCI).
